- ASSAY_INFO: NCI Yeast Anticancer Drug Screen. Data for the rad52 strain (AID 147);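 note: 0% = growth of vehicle-treated control cultures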
- TEST_PARAMETERS: S. cerevisiae rad52 mutant growth inhibition; at 3.7 µM; stronger effect = higher value
Compounds without any hit were thinned out: in the full panel of roughly 79,000, 15% have a hit.

>  <COMPOUND>
CC(=O)[C@]1(O)Cc2c(O)c3c(c(O)c2[C@@H](OC2CC(N)C(O)C(C)O2)C1)C(=O)c1c(OCc2ccccc2)cccc1C3=O (stereo partly specified)

>  <UNITS>
%

>  <growth inhibition>
40

$$$$
>  <COMPOUND>
O=NN(CCCl)C(=O)NCCCl

>  <UNITS>
%

>  <growth inhibition>
1

$$$$
>  <COMPOUND>
O=C1C=CC(=O)N1c1ccc2c(c1)OCO2

>  <UNITS>
%

>  <growth inhibition>
94

$$$$
>  <COMPOUND>
Cc1cc(C(C)(C)CC(C)(C)C)cc(O)c1O

>  <UNITS>
%

>  <growth inhibition>
34

$$$$
>  <COMPOUND>
OC(CN1CCCCC1)c1cc(Cl)c(Cl)c(Cl)c1 (stereo unspecified)

>  <UNITS>
%

>  <growth inhibition>
11

$$$$
>  <COMPOUND>
CCOC(=O)C1=C(C)NC(C)=C(C(=O)OCC)C1c1ccc(C)cc1

>  <UNITS>
%

>  <growth inhibition>
43

$$$$

====

- ASSAY_INFO: NCI Yeast Anticancer Drug Screen. Data for the bub3 strain (AID 167)
- TEST_PARAMETERS: S. cerevisiae bub3 mutant strain, at 50.0 µM, stronger effect = higher value
This is part of a sample that, as a whole, favours compounds with a hit. Of some 79,000 tested, about 15% had one in any assay.

>  <COMPOUND>
COc1cc(CNc2ccc(C(C)C)cc2)cc(OC)c1OC

>  <growth inhibition / %>
65.2

$$$$
>  <COMPOUND>
COc1cc(N(C)C)ccc1/C=C\c1ccnc2ccccc12

>  <growth inhibition / %>
-5.95

$$$$
>  <COMPOUND>
COc1ccc(S(=O)(=O)N/N=C\c2cc([N+](=O)[O-])cc(I)c2O)c(OC)c1OC

>  <growth inhibition / %>
25.8

$$$$
>  <COMPOUND>
Oc1ccccc1N=Cc1ccc(Cl)cc1

>  <growth inhibition / %>
71.5

$$$$
>  <COMPOUND>
S=P(N1CC1)(N1CC1)N1CC1

>  <growth inhibition / %>
13.8

$$$$
>  <COMPOUND>
CC(=O)Oc1ccc(C(=O)c2ccccc2)c(O)c1

>  <growth inhibition / %>
74

$$$$
>  <COMPOUND>
Cc1nc2c(ncn2CCO)c(=O)[nH]1

>  <growth inhibition / %>
0.5

$$$$
>  <COMPOUND>
CCC(NC(C)c1ccccc1)C(=O)c1ccc(OCc2ccccc2)c(OCc2ccccc2)c1 (stereo unspecified)

>  <growth inhibition / %>
22.8

$$$$
>  <COMPOUND>
CC(=O)N1C(=O)/C(=C\C(=O)c2ccc(Cl)cc2)c2ccccc21

>  <growth inhibition / %>
85.8

$$$$
>  <COMPOUND>
C=C(CCCO)[C@@H]1CC[C@@](C)(O)[C@H]1C

>  <growth inhibition / %>
55.5

$$$$
>  <COMPOUND>
O=C1C(Cl)=C(Cl)C(Cl)(Cl)C(Cl)C1(Cl)Cl (stereo unspecified)

>  <growth inhibition / %>
99.5

$$$$
>  <COMPOUND>
CN[C@@H]1C[C@H]2O[C@@](C)([C@@H]1OC)n1c3ccccc3c3c4c(c5c6ccccc6n2c5c31)C(=O)N[C@@H]4O

>  <growth inhibition / %>
74.5

$$$$
>  <COMPOUND>
Cc1cc(Cl)ccc1NC(=O)/C(Cl)=C1/Sc2ccccc2NC1=O

>  <growth inhibition / %>
20.2

$$$$
>  <COMPOUND>
O=C1C=CC(=O)N1c1ccc2c(c1)OCO2

>  <growth inhibition / %>
99.2

$$$$
>  <COMPOUND>
NP1(Oc2ccc(F)cc2)=NP(N)(Oc2ccc(F)cc2)=NP(Oc2ccc(F)cc2)(Oc2ccc(F)cc2)=N1 (stereo unspecified)

>  <growth inhibition / %>
87.5

$$$$
>  <COMPOUND>
Cn1ncc2cc3c(Nc4ccc(Cl)cc4)cccc3nc21

>  <growth inhibition / %>
44.6

$$$$
>  <COMPOUND>
CN=C(N)N/N=C(\C)c1ccc2oc3ccc(/C(C)=N/NC(N)=NC)cc3c2c1

>  <growth inhibition / %>
89.2

$$$$
>  <COMPOUND>
CC[C@@]1(OC(=O)CCC(=O)O)C(=O)OCc2c1cc1n(c2=O)Cc2cc3ccccc3nc2-1

>  <growth inhibition / %>
64.2

$$$$
>  <COMPOUND>
CC(=O)CC(=O)/C=C/c1cccs1

>  <growth inhibition / %>
19

$$$$
>  <COMPOUND>
O=Nc1ccc(Nc2ccccc2)cc1

>  <growth inhibition / %>
90.5

$$$$
>  <COMPOUND>
CCCCC(=O)c1c(O)nc2sccn2c1=O

>  <growth inhibition / %>
87.2

$$$$
>  <COMPOUND>
O=Nn1c2ccccc2c2cc([N+](=O)[O-])ccc21

>  <growth inhibition / %>
84.8

$$$$
>  <COMPOUND>
COc1ccc2c(c1)[nH]c1c(/C=C/c3ccccc3)nccc12

>  <growth inhibition / %>
87.8

$$$$
>  <COMPOUND>
CN(C)c1ccc(N=Nc2ccccn2)cc1

>  <growth inhibition / %>
87.1

$$$$
>  <COMPOUND>
CCN(CC)CC(O)c1cc(-c2ccc(Cl)cc2)nc2c(-c3ccccc3)cccc12 (stereo unspecified)

>  <growth inhibition / %>
46.3

$$$$
>  <COMPOUND>
S=c1cn[nH]c2ccc(Br)cc12

>  <growth inhibition / %>
77

$$$$
>  <COMPOUND>
O=C1OC2C(O)COC2(OCc2c[nH]c3ccccc23)C1O (stereo unspecified) (tested in a mixture with another compound)

>  <growth inhibition / %>
6.5

$$$$
>  <COMPOUND>
Cc1ccc(N=Nc2ccc(O)c(C)c2)cc1

>  <growth inhibition / %>
91.3

$$$$
>  <COMPOUND>
CN(N=O)c1ccc(/C=C/c2ccnc3ccccc23)cc1

>  <growth inhibition / %>
37

$$$$
>  <COMPOUND>
C/C=C/[P+](c1ccccc1)(c1ccccc1)c1ccccc1

>  <growth inhibition / %>
78.6

$$$$
>  <COMPOUND>
CC(=O)Oc1ccc(N2C(=O)C3c4[nH]c5ccccc5c4C4CCC(C(C)(C)C)CC4C3C2=O)cc1 (stereo unspecified)

>  <growth inhibition / %>
98.5

$$$$
>  <COMPOUND>
CCCCC1=NNC(=O)C1

>  <growth inhibition / %>
81.7

$$$$
>  <COMPOUND>
Cc1ccccc1NC(=O)Cc1csc(N/N=C2\NC(=O)/C(=C/c3cccc([N+](=O)[O-])c3)S2)n1

>  <growth inhibition / %>
66.2

$$$$
>  <COMPOUND>
CN(C)CCNc1cccc2sc3ccc(O)cc3c(=O)c12

>  <growth inhibition / %>
36.2

$$$$
>  <COMPOUND>
O=C(NC(=S)Nc1ccccn1)c1ccccc1

>  <growth inhibition / %>
63

$$$$
>  <COMPOUND>
O=C1c2cccc3cc([N+](=O)[O-])cc(c23)C(=O)N1CCN1CCCC1

>  <growth inhibition / %>
-11.2

$$$$
>  <COMPOUND>
CN(Cc1cnc2nc(N)nc(N)c2n1)c1ccc(C(=O)NC(CCC(=O)O)C(=O)O)c2ccccc12 (stereo unspecified)

>  <growth inhibition / %>
80.3

$$$$
>  <COMPOUND>
COc1cc(NCc2ccc3nc(N)nc(N)c3c2C)cc(OC)c1OC

>  <growth inhibition / %>
-46.8

$$$$
>  <COMPOUND>
C=C(C)[C@@H]1CCc2c(O)c(O)c(=O)cc(C)c2C1

>  <growth inhibition / %>
92.2

$$$$
>  <COMPOUND>
CCN1/C(=C/c2ccc3ccccc3[n+]2CC)C=Cc2ccccc21

>  <growth inhibition / %>
91

$$$$
>  <COMPOUND>
CCCCCCSc1nc(COC(=O)NC)c(COC(=O)NC)n1C

>  <growth inhibition / %>
44.2

$$$$
>  <COMPOUND>
O=C1C=CC(=Nc2ccccc2)c2ccccc21

>  <growth inhibition / %>
82.3

$$$$
>  <COMPOUND>
COc1ccc(SCc2cc(OC)ccc2OC)cc1

>  <growth inhibition / %>
61.3

$$$$
>  <COMPOUND>
CCCCCCCCCCCCCC(=O)OC(C)CCC1CCCO1 (stereo unspecified)

>  <growth inhibition / %>
34.6

$$$$
>  <COMPOUND>
COc1ccc(N)c2c1C(=O)c1ccccc1C2=O

>  <growth inhibition / %>
49

$$$$
>  <COMPOUND>
CCCCCC#CCOC(=O)C(=[N+]=[N-])P(=O)(c1ccccc1)c1ccccc1

>  <growth inhibition / %>
89.3

$$$$

Hey, just so you know, these numbers are from PubChem BioAssay (NCI).
